Reference source for all entries: patent US11007274B2

protocol_details: in vitro
condition_parameters: CC50, Table 14; line Neutral Red (Cytopathic effect/Toxicity)
measured_attribute: CC50

Req: Query: CC50; subject: NC(=O)c1ncn([C@@H]2O[C@H](CO)[C@@H](O)[C@H]2O)n1 [Ribavirin, reference compound]
Resp: > 320 µg/mL

====

protocol_details: in vitro
condition_parameters: CC50, Table 16; line Neutral Red (Cytopathic effect/Toxicity)
measured_attribute: CC50

Req: Query: CC50; subject: NC(=O)c1ncn([C@@H]2O[C@H](CO)[C@@H](O)[C@H]2O)n1 [Ribavirin, reference compound]
Resp: > 320 µg/mL

====

protocol_details: in vitro
condition_parameters: CC50, Table 15; line Neutral Red (Cytopathic effect/Toxicity)
measured_attribute: CC50

Req: Query: CC50; subject: NC(=O)c1ncn([C@@H]2O[C@H](CO)[C@@H](O)[C@H]2O)n1 [Ribavirin, reference compound]
Resp: > 320 µg/mL
